Target: human truncated cGAS enzyme (147-522 human cGAS) (Homo sapiens (Human), UniProt Q8N884)
Sequence (Q8N884 147-522): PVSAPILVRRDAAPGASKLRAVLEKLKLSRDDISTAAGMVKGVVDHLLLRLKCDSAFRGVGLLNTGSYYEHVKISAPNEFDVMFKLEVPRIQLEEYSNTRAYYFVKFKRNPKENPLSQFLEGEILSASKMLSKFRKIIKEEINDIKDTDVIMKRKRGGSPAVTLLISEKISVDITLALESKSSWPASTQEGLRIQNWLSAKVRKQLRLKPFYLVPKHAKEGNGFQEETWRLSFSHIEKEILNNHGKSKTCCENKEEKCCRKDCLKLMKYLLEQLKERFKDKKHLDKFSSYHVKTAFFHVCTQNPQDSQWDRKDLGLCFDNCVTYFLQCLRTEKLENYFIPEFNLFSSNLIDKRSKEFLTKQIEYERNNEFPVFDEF
Test: Quantification of cGAS protein inhibition (cGAMP formation measured by LC-MS/MS)
Assay type: biochemical
Conditions: reported for the potential mixture of co-existing tautomers and/or racemates
pIC50: −log10 of the molar value.
Assign class by pIC50: not lower than 7 means fulfilled; lower than 7 means not fulfilled.

# count of solved cases: 3
>  <molecule>
FC(F)(F)c1nnc(-c2[nH]c3c(Cl)c(Cl)ccc3c2-c2cc[nH]n2)[nH]1 [Example 78]

>  <assay_target>
human truncated cGAS enzyme (147-522 human cGAS) (Homo sapiens (Human), UniProt Q8N884)

>  <group>
not fulfilled

$$$$
>  <molecule>
COc1cc2c(-n3ccnc3)c(-c3nnc(CCO)[nH]3)n(C)c2c(F)c1Cl [Example 51]

>  <assay_target>
human truncated cGAS enzyme (147-522 human cGAS) (Homo sapiens (Human), UniProt Q8N884)

>  <group>
not fulfilled

$$$$
>  <molecule>
COc1cc2c(-c3cn[nH]c3)c(-c3nnc(C(=O)N(C)C)[nH]3)n(C)c2c(F)c1Cl [Example 2]

>  <assay_target>
human truncated cGAS enzyme (147-522 human cGAS) (Homo sapiens (Human), UniProt Q8N884)

>  <group>
fulfilled

$$$$

Req: // inclusive: pIC50 at least 7? input: COc1cc2c(-c3cn[nH]c3)c(-c3nnc(C(C)C#N)[nH]3)n(C)c2c(F)c1Cl (centres unmarked) [Example 82]
Resp: fulfilled
